Listing: protein stability index of selected variants
B1: TRIM39 (parent)
chain: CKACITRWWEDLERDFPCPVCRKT

- Variants of: B1
- Test protocol: protein stability index of a GFP-peptide fusion (GPS, HEK-293T) (PSI 1-6); higher = more stable;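 also: lentivirally expressed fusions sorted by FACS into six bins by GFP to DsRed ratio, PSI derived from sequencing read proportions per bin multiplied by bin number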
- Conditions: c terminus: a fixed tail appended
A bare number is all that is needed in reply.

Solved cases (5 shown):
R14F
3.69
I5P
3.86
W8V
4.73
W8D
4.42
C1F
1.42

Request: # lookup: protein stability index of R14E
Result: 4.59

Request: # lookup: protein stability index of E10I
Result: 3.65

Request: # lookup: protein stability index of C1D
Result: 2.45

The measured values listed here are drawn from the supplement of paper PMC10567573.
